Values from paper PMC10974294

- ASSAY REMARKS: Compound loss (PDMS ad- and absorption) in cell-free organ-chips
- Type: in vitro ADME
- EXPERIMENTAL CONTEXT: cell-free organ-chips; 10 µM per drug in cocktail; outlet vs inlet after one hour at 200 µL/h; mean of two experiments
Returns fulfilled if the recorded Compound Loss Top Channel (%) is greater than or equal to 60%, and not fulfilled otherwise.

SMILES STRUCTURE: C=C[C@H]1C[N@@]2CC[C@H]1C[C@@H]2[C@@H](O)c1ccnc2ccc(OC)cc12
QUALITATIVE LABEL: not fulfilled
--
SMILES STRUCTURE: Cc1ncc2n1-c1ccc(Cl)cc1C(c1ccccc1F)=NC2
QUALITATIVE LABEL: fulfilled
--
SMILES STRUCTURE: O[C@@H](COc1cccc2ncccc12)CN1CCN([C@@H]2c3ccccc3[C@@H]3[C@H](c4ccccc42)C3(F)F)CC1
QUALITATIVE LABEL: fulfilled
--
SMILES STRUCTURE: Cc1c(-c2ccc(O)cc2)n(Cc2ccc(OCCN3CCCCCC3)cc2)c2ccc(O)cc12
QUALITATIVE LABEL: not fulfilled
--
SMILES STRUCTURE: C[C@]12CC[C@H]3[C@@H](CCC4=CC(=O)CC[C@@]43C)[C@@H]1CC[C@@H]2O
QUALITATIVE LABEL: not fulfilled
